Attribute: MIC
# Test system: methicillin-resistant S. aureus (FPR3757)
# testName: MIC against clinical MRSA strain FPR3757 in Mueller-Hinton broth (CLSI)
# Type: cell-based, Staphylococcus aureus
# particulars: Staphylococcus aureus, MRSA, MRSA clinical strain FPR3757, Mueller-Hinton broth, CLSI guidelines, complete inhibition of observable growth; read-out: MIC
# Experimental: The first set of compounds evaluated were analogs at the C-7 and C-8 positions of the initial quinolone hit DNAC-2 since the other HTS hits identified (data not shown) were substituted at these positions (Table 1). Applicants first explored modification at the C-7 position with a small series of electron-donating and withdrawing substituents. […] The C-8 position was evaluated with trifluoromethyl 4 and trifluoromethoxy 5 containing the optimal C-7 substituents. […]

compound: O[C@H]1C[C@H]2CC[C@@H](C1)C2Nc1cc(C(F)(F)F)nc2cc(C(F)(F)F)ccc12 (some centres unmarked)
targetOrTestSystem: methicillin-resistant S. aureus (FPR3757)
MIC: > 32 µg/mL
//
compound: COc1ccc2c(Nc3cccc(OC(F)(F)F)c3)cc(C(F)(F)F)nc2c1
targetOrTestSystem: methicillin-resistant S. aureus (FPR3757)
MIC: > 32 µg/mL
//
compound: O=c1cc(C(F)(F)F)[nH]c2cc(C(F)(F)F)cc(Nc3cccc(OC(F)(F)F)c3)c12
targetOrTestSystem: methicillin-resistant S. aureus (FPR3757)
MIC: 0.06 to 0.12 µg/mL
//
compound: O=C1Cc2cc(Nc3cc(C(F)(F)F)nc4cc(C(F)(F)F)ccc34)ccc2N1
targetOrTestSystem: methicillin-resistant S. aureus (FPR3757)
MIC: > 32 µg/mL
//
compound: O=c1cc(C(F)(F)F)[nH]c2cc(F)cc(Nc3ccc(C(F)(F)F)cn3)c12
targetOrTestSystem: methicillin-resistant S. aureus (FPR3757)
MIC: < 0.06 µg/mL
//
compound: O=c1cc(C(F)(F)F)[nH]c2cc(Nc3ccc(F)c(F)c3)cc(C(F)(F)F)c12
targetOrTestSystem: methicillin-resistant S. aureus (FPR3757)
MIC: 4 µg/mL
//
compound: O=c1cc(C(F)(F)F)[nH]c2cc(C(F)(F)F)cc(Nc3ccc(Cl)c(Cl)c3)c12
targetOrTestSystem: methicillin-resistant S. aureus (FPR3757)
MIC: < 0.06 µg/mL
//
compound: O=c1cc(C(F)(F)F)[nH]c2cc(C(F)(F)F)cc(Nc3ccc(C(F)(F)F)cn3)c12
targetOrTestSystem: methicillin-resistant S. aureus (FPR3757)
MIC: < 0.06 µg/mL

----------
Attribute: MIC
# System: methicillin-resistant S. aureus (FPR3757)
# testName: MIC against clinical MRSA strain FPR3757 in Mueller-Hinton broth (CLSI)
# Format: cell-based, Staphylococcus aureus
# particulars: Staphylococcus aureus, MRSA, MRSA clinical strain FPR3757, Mueller-Hinton broth, CLSI guidelines, complete inhibition of observable growth; read-out: MIC

compound: FC(F)(F)Oc1cccc(Nc2cc(C(F)(F)F)nc3cc(OC(F)(F)F)ccc23)c1 [Compound 33]
MIC: 0.5 to 1 mg/L

compound: FC(F)(F)c1ccc(Nc2cc(C(F)(F)F)nc3cc(C(F)(F)F)ccc23)nc1 [Compound 31]
MIC: 0.25 mg/L

compound: COc1ccc2c(=O)cc(C(F)(F)F)[nH]c2c1 [Compound 9]
MIC: 320 to 640 mg/L

compound: FC(F)(F)c1ccc2c(Nc3ccc(Cl)cc3)cc(C(F)(F)F)nc2c1 [Compound 17]
MIC: 0.125 to 0.25 mg/L

compound: COC(=O)c1cc(Nc2cc(C(F)(F)F)nc3cc(C(F)(F)F)ccc23)ccn1 [Compound 54]
MIC: > 32 mg/L

compound: O=c1cc(C(F)(F)F)[nH]c2c(OC(F)(F)F)cccc12 [Compound 5]
MIC: 5 mg/L

compound: FC(F)(F)c1ccc(Nc2cc(C(F)(F)F)nc3c(C(F)(F)F)cccc23)nc1 [Compound 47]
MIC: 0.5 mg/L

compound: O=c1cc(C(F)(F)F)[nH]c2cc(C(F)(F)F)cc(-c3ccc(C(F)(F)F)nn3)c12 [Compound 114]
MIC: 1 to 2 mg/L

compound: FC(F)(F)c1ccc2c(Nc3ncccn3)cc(C(F)(F)F)nc2c1 [Compound 56]
MIC: > 32 mg/L
